Here the recorded peptide exchange yield is given for each entry.
# EXPERIMENTAL_SYSTEM: T1, HLA-A*02:01 (peptide-receptive MHC class I monomer after UV cleavage of the UV-sensitive ligand) (human)
# T1 construct: MHC monomers loaded by UV-ligand exchange and captured on streptavidin plates
# MEASUREMENT_PROTOCOL: UV ligand-exchange ELISA; exchange yield grade (+ >=10%, ++ >=20%, +++ >=50%, ++++ >=75%)

{"BINDER": "LLATVNVAL [LLATVNVAL (SEQ ID NO: 67)]", "PROPERTY_NAME": "peptide exchange yield", "VALUE_REPORTED": "≥ 75%"}
{"BINDER": "LLFDLIPVVSV [LLFDLIPVVSV (SEQ ID NO: 95)]", "PROPERTY_NAME": "peptide exchange yield", "VALUE_REPORTED": "50 to 75%"}
{"BINDER": "GLLSAVSSV [GLLSAVSSV (SEQ ID NO: 198)]", "PROPERTY_NAME": "peptide exchange yield", "VALUE_REPORTED": "50 to 75%"}
{"BINDER": "SLADSMPSL [SLADSMPSL (SEQ ID NO: 193)]", "PROPERTY_NAME": "peptide exchange yield", "VALUE_REPORTED": "20 to 50%"}
{"BINDER": "LLPPPSPAA [LLPPPSPAA (SEQ ID NO: 160)]", "PROPERTY_NAME": "peptide exchange yield", "VALUE_REPORTED": "50 to 75%"}
{"BINDER": "VIFSYVLGV [VIFSYVLGV (SEQ ID NO: 130)]", "PROPERTY_NAME": "peptide exchange yield", "VALUE_REPORTED": "50 to 75%"}
{"BINDER": "LLLDGLIYL [LLLDGLIYL (SEQ ID NO: 50)]", "PROPERTY_NAME": "peptide exchange yield", "VALUE_REPORTED": "50 to 75%"}
{"BINDER": "YSDDDVPSV [YSDDDVPSV (SEQ ID NO: 253)]", "PROPERTY_NAME": "peptide exchange yield", "VALUE_REPORTED": "≥ 75%"}

Input line: # lookup: peptide exchange yield of VLNEDELPSV [VLNEDELPSV (SEQ ID NO: 32)]
Output line: 50 to 75%

Input line: Reported peptide exchange yield for VLIEILQKA [VLIEILQKA (SEQ ID NO: 70)] : what is it?
Output line: ≥ 75%
